# ASSAYED SYSTEM: T1, CD123-his-biotin抗原 (Homo sapiens (Human), UniProt P26951 19-305, biotin label (site not stated))
# T1 construct: Bought from SinoBiological and biotin-labelled; also called CD123-Biotin; CD123抗原; not shown: his tag
# T1 sequence: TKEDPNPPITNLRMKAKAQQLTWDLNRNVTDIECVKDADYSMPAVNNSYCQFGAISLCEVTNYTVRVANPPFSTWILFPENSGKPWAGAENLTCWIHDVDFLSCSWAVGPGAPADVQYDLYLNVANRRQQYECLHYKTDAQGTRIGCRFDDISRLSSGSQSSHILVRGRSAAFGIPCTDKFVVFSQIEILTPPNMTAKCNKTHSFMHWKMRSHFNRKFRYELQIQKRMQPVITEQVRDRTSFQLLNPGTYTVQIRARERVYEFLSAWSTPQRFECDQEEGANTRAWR
# ASSAY: BLI (Octet RED96), CD123-Biotin on AR2G sensor, scFv periplasmic extract as analyte
QUANTITY MEASURED: koff (s⁻¹)
Express the result in s⁻¹ but write the number alone.

binder="3F8 (scFv, V domains shown) VH: QVQLQQPGAELVRPGASVKLSCKASGYTFTQYWMNWVKQRPDQGLEWIGRIDPYDSETHYNQKFKDKAILTVDKSSSTAYMQLSSLTSEDSAVYYCARGISQDFWGQGTTLTVSS VL: DVQITQSPSYLAASPGETITINCRASKSISKDLAWYQEKPGKTNKLLIYSGSTLQSGIPSRFSGSGSGTDFTLTISSLEPEDFAMYYCQQHNKYPYTFGGGTKLEIK" quantity_measured=koff measurement=0.000558
binder="4A6 (scFv, V domains shown) VH: QVQLQQPGAELVRPGASVKLSCKASGYTFQSYWMNWVKQRPDQGLEWIGRIDPYDSETHYNQKFKDKAILTVDKSSSTAYMQLSSLTSEDSAVYYCARGNWDDYWGQGTTLTVSS VL: DVQITQSPSYLAASPGETITINCRASKSISKDLAWYQEKPGKTNKLLIYSGSTLQSGIPSRFSGSGSGTDFTLTISSLEPEDFAMYYCQQHNKYPYTFGGGTKLEIK" quantity_measured=koff measurement=0.000323

# input for lookup
Data request: Give its koff value. Item: 7G8 (scFv, V domains shown, also called 抗体7G8) VH: QVQLQQPGAELVRPGASVKLSCKASGYTFTSYWMNWVKQRPDQGLEWIGRIDPYDSETHYNQKFKDKAILTVDKSSSTAYMQLSSLTSEDSAVYYCARGNWDDYWGQGTTLTVSS VL: DVQITQSPSYLAASPGETITINCRASKSISKDLAWYQEKPGKTNKLLIYDASRRGSGIPSRFSGSGSGTDFTLTISSLEPEDFAMYYCQQHNKYPYTFGGGTKLEIK
Data returned: 0.000127
